Each recorded value in this set is attributed to PubChem BioAssay.

experiment: P. aeruginosa biofilm formation inhibitors, primary screen, PAO1 strain, BacTiter-Glo luminescence, LB-PBS (AID 1144); conditions: 12 h, higher = more signal
Could you please report measured z-score for the items listed next?
When you answer, write just the number.

Given the compound COc1ccc(C#Cc2ccc3c(c2)[C@]2(C(=O)N3)[C@H](C(=O)NC[C@H](O)c3ccccc3)[C@H]3C(=O)O[C@H](c4ccccc4)[C@H](c4ccccc4)N3[C@@H]2c2ccccc2OCCO)cc1 , what is its reported z-score?
-0.494

Using the record for [N-]=[N+]=NCc1ccccc1C[C@]1(C(=O)O)N=C(c2ccc(OCCCO)cc2)O[C@H]1c1ccccc1 , report its z-score.
-0.556

I would be grateful if you could share the reported z-score for Cc1ccc([C@H]2C(C(=O)O)=C[C@@H](C)N2S(=O)(=O)c2ccc(C)cc2)cc1 .
0.759

Entry under review: [N-]=[N+]=Nc1ccccc1C[C@]1(C(=O)NCCN2CCOCC2)N=C(c2ccc(OCCCO)cc2)O[C@H]1c1ccccc1 . Reported z-score?
0.355

For the compound CCCCC(CC)C(O)C1C=CC2C(=O)N(c3ccccc3)C(=O)C2N1Nc1ccccc1 (centres undefined) , what z-score is on record?
-0.569

Request the reported z-score associated with COC(=O)[C@@]1(Cc2ccc(OC)cc2)[C@H]2c3cc(C(=O)N4CCCC4)n(Cc4cc(F)cc5c4OCOC5)c3C[C@H]2CN1C(=O)c1ccccc1
0.437

Which z-score value belongs to COC(=O)C[C@H]1O[C@]2(C(=O)N(Cc3ccccc3)c3ccc(NC(C)=O)cc32)[C@@H](C)[C@@H]1[Si](C)(C)c1ccc(OC)cc1 ?
0.695

Which z-score value is on record for COCCOC(=O)N1C(=O)[C@@]2(c3cc(C#CCC(C(=O)OC)C(=O)OC)ccc31)[C@H](c1ccccc1OCCO)N1[C@H](c3ccccc3)[C@H](c3ccccc3)OC(=O)[C@H]1[C@@H]2C(N)=O ?
0.451

Returns the measured z-score for the input compound. Input: CC(C)CNC(=O)[C@@H]1c2ccccc2C(=O)N(Cc2cc(C(F)(F)F)cc(C(F)(F)F)c2)[C@H]1c1ccc(CO)cc1
0.788

Reported z-score for Cc1ccc([C@H]2[C@H](C(=O)O)[C@H](Sc3ccccc3)[C@@H](C(C)C)N2S(=O)(=O)c2ccc(C)cc2)cc1 : what is it?
0.766

// returns reported z-score for input COc1ccc(C#Cc2ccc3c(c2)[C@]2(C(=O)N3)[C@H](C(=O)NC[C@H](O)c3ccccc3)[C@H]3C(=O)O[C@H](c4ccccc4)[C@H](c4ccccc4)N3[C@@H]2c2ccc(OCCO)cc2)cc1
-0.563

What value of z-score has been recorded for this entry: Cc1ccc(S[C@]2(C(=O)NCc3ccccc3)CC(=O)N(Cc3ccccc3)[C@@H]2c2ccc(CO)cc2)cc1
0.395

Any idea what its z-score is? The compound is COc1ccc([Si](C)(C)[C@H]2[C@H](CCn3cc([C@H](O)c4ccccc4)nn3)O[C@@]3(C(=O)N(Cc4cccc(N5CCC5=O)c4)c4ccccc43)[C@@H]2C)cc1
0.115

Which z-score is listed for Cc1cc(C)c(C(O)C2C=CC3C(=O)N(c4ccccc4)C(=O)C3N2Nc2ccc(C#N)cc2)c(C)c1 (centres undefined) ?
-1.36

----------
test: PSAC antagonists in infected red cells, primary screen, cell-based, P. falciparum Indochina, OD700, 18 h (AID 1157); conditions: P. falciparum Indochina infected erythrocytes, osmotic lysis OD700, 18 h; higher = more signal, called active from +8 up or from −8 down
OUTCOME MEASURE: z-score
Just the number, please, no unit after it.

Can you look up the measured z-score of CC(C)N1C(=O)C[C@@](C(=O)NCc2ccccc2)(c2ccc([N+](=O)[O-])cc2)[C@H]1c1ccc(CO)cc1 for me?
0.449

Record request: z-score value, item CC(C)C[C@@H]1NC(=O)[C@H]2C[C@@H](C(=O)NCCCCCNC(=O)CS)[C@@H](c3cccc(OCCO)c3)N2C1=O
0.327

Give its z-score value. Item: O=C(O)[C@@]1(Cc2ccccc2)N=C(c2ccc(OCCCO)cc2)O[C@H]1c1ccccc1
0.445

Looking for the measured z-score of COCCOC(=O)N1C(=O)[C@@]2(c3cc(C#CC4=CCCCC4)ccc31)[C@H](C(=O)N1CCc3cc(OC)c(OC)cc3C1)[C@H]1C(=O)O[C@H](c3ccccc3)[C@H](c3ccccc3)N1[C@@H]2c1ccccc1OCCO , can you help?
0.703

Consider the molecule C=CCC(OC(C)=O)[C@@H]1[C@@H](N(Cc2cccc3ccccc23)C(=O)c2cccc3ccccc23)c2cc(OCCCO)ccc2N1C(=O)c1ccc2ccccc2n1 (stereo partly drawn) and give its measured z-score.
0.532

If you can, please state the reported z-score value of COc1cccc(C(=O)O[C@H]2CC[C@]3(C)C4=C(CCC3C2(C)C)[C@]2(C)CC[C@H]([C@H](C)CCCC(C)C)[C@@]2(C)CC4)c1 (stereo partly drawn) .
-1.63

May I ask what z-score has been recorded for CCCCC=C[C@@H](NC(=O)c1ccc(C(=O)OC)cc1)c1ccccc1 ?
0.569

May I ask what z-score has been recorded for CC(=O)NCCCC[C@@H]1NC(=O)[C@H]2C[C@@H](C(=O)NCCCCCC[N+](C)(C)C)[C@@H](c3cccc(OCCO)c3)N2C1=O ?
-2.25

----------
Field: composite z-score. Provide a value for each of the compounds that follow.
biological target: Left-right determination factor 2 (Homo sapiens); test: LEFTY2 binders on small-molecule microarrays, primary screen, biochemical, small-molecule microarray, 635 nm fluorescence scan (AID 1110); details: LEFTY2 binding, higher = more signal

I'd like to know its composite z-score. The compound in question is COC(=O)c1ccc(C(O)C2C=CC3C(=O)N(c4ccccc4)C(=O)C3N2Nc2ccc(C#N)cc2)o1 (stereo not given)
0.196

Suppose we examine the compound COc1c(C)cc(-c2cc3c(c(-c4ccc(Oc5ccccc5)cc4)n2)[Si](C(C)C)(C(C)C)OC3)cc1C ; what composite z-score value has been reported?
-0.0065

Data request, read-out composite z-score, for CCCNC(=O)[C@@]1(c2ccc([N+](=O)[O-])cc2)CC(=O)N(CC23CC4CC(CC(C4)C2)C3)[C@@H]1c1ccc(CO)cc1
0.421

Item under review: COc1cc2c(cc1OC)CN(C(=O)[C@@H]1[C@H]3C(=O)O[C@H](c4ccccc4)[C@H](c4ccccc4)N3[C@H](c3ccccc3OCCO)[C@@]13C(=O)Nc1ccc(C#CCNC(N)=O)cc13)CC2 . Reported composite z-score?
0.17

composite z-score for CC(=O)NCCCC[C@@H]1NC(=O)[C@H]2C[C@@H](C(=O)NCCCCCC[N+](C)(C)C)[C@@H](c3cccc(OCCO)c3)N2C1=O ?
1.02

----------
biological target: NADPH oxidase 5 (Homo sapiens) (UniProt Q96PH1); experiment: NOX5-dependent H2O2 signal modulators, primary screen, NOX inhibitor project, cell-based, HEK293-NOX5, Amplex Red fluorescence (AID 1161); conditions: HEK293-NOX5, ionomycin, 45 min, higher = more signal
Sequence (Q96PH1 whole entry, looked up): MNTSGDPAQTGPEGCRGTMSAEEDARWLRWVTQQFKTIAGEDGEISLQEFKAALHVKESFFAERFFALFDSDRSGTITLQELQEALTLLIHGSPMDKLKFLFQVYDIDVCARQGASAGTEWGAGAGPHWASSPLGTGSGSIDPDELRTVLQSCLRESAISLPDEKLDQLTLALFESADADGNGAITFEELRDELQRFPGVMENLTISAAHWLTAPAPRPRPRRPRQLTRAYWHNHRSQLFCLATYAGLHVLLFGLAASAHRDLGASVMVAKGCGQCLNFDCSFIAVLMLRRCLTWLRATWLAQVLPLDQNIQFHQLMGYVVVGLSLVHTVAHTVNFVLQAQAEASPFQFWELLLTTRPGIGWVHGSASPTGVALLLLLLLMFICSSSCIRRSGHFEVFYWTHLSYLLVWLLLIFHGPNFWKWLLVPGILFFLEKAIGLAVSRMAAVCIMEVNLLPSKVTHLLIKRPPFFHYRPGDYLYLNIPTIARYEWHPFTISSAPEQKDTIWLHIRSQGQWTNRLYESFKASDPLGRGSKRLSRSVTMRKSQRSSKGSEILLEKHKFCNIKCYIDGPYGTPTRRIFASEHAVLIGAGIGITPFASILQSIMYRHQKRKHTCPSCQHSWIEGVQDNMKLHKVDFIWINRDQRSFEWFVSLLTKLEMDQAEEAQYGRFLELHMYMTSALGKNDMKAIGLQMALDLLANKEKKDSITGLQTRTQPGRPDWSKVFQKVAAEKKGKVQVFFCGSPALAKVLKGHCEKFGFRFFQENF
# if value of z-score reaches -0.4, tag fulfilled; if it stays below, tag not fulfilled

Tell me whether z-score is at least -0.4 here: CCN(CC)c1ccc(N2CC=CC34O[C@@H]5/C=C\CCCOC(=O)C5[C@H]3C(=O)N(C(CO)C(C)C)[C@@H]4C2=O)cc1 (some centres not stated)
fulfilled

Is z-score at least -0.4? Consider Cc1cc(C)c(C(O)C2C=CC3C(=O)N(C)C(=O)C3N2Nc2ccccc2)c(C)c1 (configuration not stated)
not fulfilled

Hi, just wondering whether O=C1C2C=CC(C(O)c3ccc(-c4ccccc4)s3)N(n3cnnc3)C2C(=O)N1Cc1ccccc1 (configuration not stated) shows z-score of -0.4 or higher.
not fulfilled

z-score >= -0.4 for O=C/C=C/c1ccc(Cl)cc1 ?
fulfilled

Evaluate COCC(=C=CC[C@H](O)c1ccc(OCCO)cc1)C[C@H](O)c1cc(Cl)cc(Cl)c1O : z-score at minimum -0.4?
not fulfilled

Say whether CC1CC/C=C\[C@H]2OC34C=CCN(Cc5ccccc5)C(=O)[C@H]3N(CCCCCO)C(=O)[C@@H]4C2C(=O)O1 (some centres not stated) shows z-score of -0.4 or more.
fulfilled

Entry COC(=O)C(CC#Cc1ccc2c(c1)[C@]1(C(=O)N2)[C@H](c2ccc(OCCO)cc2)N2[C@H](c3ccccc3)[C@H](c3ccccc3)OC(=O)[C@H]2[C@@H]1C(=O)NC[C@H](O)c1ccccc1)C(=O)OC : is its z-score no less than -0.4?
fulfilled

Decide: is the reported value of z-score for O=C(NCc1ccccc1)[C@]1(CCS(=O)(=O)c2ccccc2)N=C(c2ccc(OCCCO)cc2)O[C@@H]1c1ccccc1 equal to or greater than -0.4?
fulfilled

Evaluate C=CCOC(=O)[C@H]1[C@@H]2C(=O)O[C@@H](c3ccccc3)[C@@H](c3ccccc3)N2[C@@H](c2ccc(OCCOC(=O)[C@@H]3C[C@@H]4C(=O)NCC(=O)N4[C@@H]3c3ccc(O)cc3)cc2)[C@]12C(=O)Nc1ccccc12 : z-score at minimum -0.4?
fulfilled

API: above_or_equal(metric=z-score, cutoff=-0.4) for item O=C1O[C@H](c2ccccc2)[C@H](c2ccccc2)N2[C@H]1[C@@H](C(=O)O)[C@]1(C(=O)Nc3ccc(C#CC4=CCCCC4)cc31)[C@H]2c1ccc(OCCO)cc1
fulfilled

Hello, I need to know if [N-]=[N+]=NCc1ccccc1C[C@@]1(C(=O)N2CCOCC2)N=C(c2ccc(OCCCO)cc2)O[C@@H]1c1ccccc1CN=[N+]=[N-] has measured z-score not below -0.4. Thanks!
fulfilled

Kindly determine if z-score recorded for Cc1ccccc1C(O)C1C=CC2C(=O)N(C)C(=O)C2N1N1CCCCC1 (configuration not stated) is above or exactly -0.4.
not fulfilled

Does CC(C)C(=C=CC[C@H](O)c1cccc(OCCO)c1)C[C@H](O)COCc1ccccc1 have a reported z-score of at least -0.4?
not fulfilled

Determine whether this compound has z-score no lower than -0.4: CCCCCN1CC=CC23O[C@@H]4/C=C\CCC(C)OC(=O)C4[C@H]2C(=O)N(CCCCCO)[C@@H]3C1=O (some centres not stated)
fulfilled

Confirm if z-score reported for the compound CCC(CC)C(O)C1C=CC2C(=O)N(c3ccccc3)C(=O)C2N1Nc1ccc(C#N)cc1 (configuration not stated) is -0.4 or above.
not fulfilled

API: above_or_equal(metric=z-score, cutoff=-0.4) for item COC(=O)C[C@@H]1C[C@H](C)[C@]2(O1)C(=O)N(Cc1ccccc1)c1ccc(NC(C)=O)cc12
fulfilled

Quick check, z-score >= -0.4? CC(C)NC(=O)[C@@H]1c2ccccc2C(=O)N(Cc2ccccc2Cl)[C@H]1c1ccc(CO)cc1
fulfilled

Is it the case that Cc1ccc(F)cc1S(=O)(=O)N[C@@H]1CCN(Cc2ccc(-c3ccccc3)cc2)C1 has z-score reaching or exceeding -0.4?
not fulfilled

Is z-score for CCOC(=O)C1=CCC(c2ccc(C#N)cc2)N(S(=O)(=O)c2ccc(C)cc2)C1 (configuration not stated) at or above -0.4?
fulfilled

Reported z-score reaches at least -0.4 for O=C1O[C@@H](c2ccccc2)[C@@H](c2ccccc2)N2[C@@H](c3ccc(O)cc3)[C@]3(C(=O)Nc4ccc(C#CC5=CCCCC5)cc43)[C@@H](C(=O)O)[C@H]12 ?
not fulfilled

Quick check, z-score >= -0.4? O=c1cccc(C=Cc2ccccc2)o1
fulfilled
